Known T/C of a selection of compounds
Test system: L1210 leukemia ip in BDF1 mice, survival T/C
Assay: NCI In Vivo Anticancer Drug Screen. Data for tumor model L1210 Leukemia (intraperitoneal) in B6D2F1 (BDF1) mice
Conditions: endpoint: mean survival time; dose: 50.0 mg/kg/injection; schedule: Q01DX001 (ip); vehicle: saline; higher = longer survival
Toxic doses and inconclusive results are not listed.

| Compound | T/C |
| --- | --- |
| O=[N+]([O-])c1ccc(Oc2ccc(F)cc2)c([N+](=O)[O-])c1 | 103 % of control |
| O=[N+]([O-])c1cccc([N+](=O)[O-])c1/C=N/Nc1nnc(N/N=C/c2c([N+](=O)[O-])cccc2[N+](=O)[O-])c2ccccc12 | 100 % of control |
| CCOC(=O)c1ccc(N(CC(S)CNc2cc(C)nc(N)n2)S(=O)(=O)c2ccc(C)cc2)cc1 (centres undefined) | 90 % of control |
| O=c1ccc(=O)n(CCc2ccccn2)[nH]1 | 97 % of control |
| CC(C)(CC(N)=O)C(=O)O | 102 % of control |
| Cc1ncc(C(N)=O)c2c1OC(C)(C)OC2 | 100 % of control |
| CCSC(=N)N=Nc1ccc(O)cc1 | 104 % of control |
| CCCCCCCCCCCCCC[As](=O)(O)CCCCCCCCCCCCCC | 103 % of control |
| O=C(c1ccc(Cl)cc1)C(NCCO)c1ccc(Cl)cc1 (centres undefined) | 97 % of control |

---

Known T/C of a selection of compounds
Test system: L1210 leukemia ip in BDF1 mice, survival T/C
Experiment: NCI In Vivo Anticancer Drug Screen. Data for tumor model L1210 Leukemia (intraperitoneal) in B6D2F1 (BDF1) mice
Details: endpoint: mean survival time; dose: 400.0 mg/kg/injection; schedule: Q01DX001 (ip); vehicle: saline; higher = longer survival
Inconclusive results and toxic doses are left out.

| Compound | T/C |
| --- | --- |
| OCCc1ccccc1O | 100 % of control |
| Nc1cccn2ncnc12 | 97 % of control |
| C(/C=C/c1ccccc1)=C\c1ccccc1 | 104 % of control |
| [Mg+2] | 96 % of control |
| CCCCCCOC(=O)Nc1ccc(S(=O)(=O)NC2CCCCC2)cc1 | 95 % of control |
| O=C(Nc1ccc(N=Nc2ccccc2)cc1)C(F)(F)F | 93 % of control |
| O=C1C(CO)=C[C@@H](O)[C@H]2O[C@@H]12 | 111 % of control |
| CC1C(=O)C2CCCCC2C1=O (stereo not drawn) | 100 % of control |

---

System: L1210 leukemia ip in BDF1 mice, survival T/C
Assay: NCI In Vivo Anticancer Drug Screen. Data for tumor model L1210 Leukemia (intraperitoneal) in B6D2F1 (BDF1) mice
Settings: endpoint: mean survival time; dose: 400.0 mg/kg/injection; schedule: Q04DX002 (ip); vehicle: Klucel (hydroxypropylcellulose) (HPC); higher = longer survival
Toxic doses and inconclusive results are not listed. Square brackets hold non-standard residues; d marks the D form. Peptide text beside a SMILES is read from it. * marks the point of attachment. ξ: configuration not given here. Octanoyl = CCCCCCCC(=O)*; OBn = c1ccc(CO*)cc1; ξP = O=C(O)C1CCCN1
Parameter: T/C

| Compound | Parameter | Result |
| --- | --- | --- |
| O=C(O)c1cc(Cl)cc(I)c1Br | T/C | 105 % of control |
| O=C1OCC/C1=C/OCCCCCCCCCCO/C=C1\CCOC1=O | T/C | 94 % of control |
| Brc1cccc2ccccc12 | T/C | 119 % of control |
| Cc1cc(O)c(C(C)C)cc1C1=NCC(C)S1 (stereo not drawn) | T/C | 107 % of control |
| CN1C(=O)c2ccccc2/C=C\c2ccccc21 | T/C | 87 % of control |
| S=C(Cc1cc(Cl)ccc1Cl)N1CCOCC1 | T/C | 98 % of control |
| CCc1ccccc1NC(=O)C(Cl)Cl | T/C | 100 % of control |
| OCC(O)C(O)C(O)C(O)c1nc2ccccc2[nH]1 (stereo not drawn) | T/C | 97 % of control |
| CCCCCCCC(=O)N1CCCC1C(=O)NCC(=O)NCC(=O)OCc1ccccc1 (stereo not drawn) (Octanoyl-[ξP]-Gly-Gly-OBn) | T/C | 105 % of control |
| CC(C)(C)c1cc(/C=N/NC(=O)CCCCCCCCC(=O)N/N=C/c2cc(C(C)(C)C)c(O)c(C(C)(C)C)c2)cc(C(C)(C)C)c1O | T/C | 102 % of control |
| Oc1cccc(Nc2ccccc2)c1 | T/C | 95 % of control |
| CCOC(=O)CCc1nc2ccc3ccccc3c2c(=O)[nH]1 | T/C | 94 % of control |
| O=c1sc2c(s1)CCCC2 | T/C | 92 % of control |
| C/C=C\C=C\C(=O)O | T/C | 103 % of control |
| CC1(C)OCC(C(NC(=O)c2ccccc2)C(OC(=O)c2ccccc2)C2COC(C)(C)O2)O1 (stereo not drawn) | T/C | 90 % of control |
| O=[N+]([O-])c1ccccc1S/N=C/c1ccccc1O | T/C | 105 % of control |
| CCOC(=O)CNc1cccc(Cl)c1 | T/C | 96 % of control |
| O=C1OC2CCCCC2/C1=C/N1CCCCC1 (stereo not drawn) | T/C | 88 % of control |
